# measured on: hHER3 full length (human, UniProt P21860 20-1342)
# measurement protocol: cell-based or functional assay
measure name: IC50, HRG1-β1 induced pAkt, MCF-7
Quick note: number first, unit second.

>>> result("34A04 (VHH) VHH: EVQLVESGGGLVQAGGSLRLSCAASGFTFDDYTIGWFRQAPGKEREEISCISNNDGSTYYTNSVKGRFTISSDNAKNTVYLQMNSLKPEDTAVYYCAASPHGCWYDLIPLQADFGSWGQGTQVTVSS")
"6.26e-08 M"
>>> result("05A09 (VHH) VHH: EVQLVESGGGLVQAGGSLRLSCAASGFTFDDYAIGWFRQAPGKEREGVSCISSSDGSTVYADSVKGRFTISSDNAKNTVYLQMNSLKPEDTAVYYCAAERRRGYSDLCRFYYGMDYWGKGTQVTVSS")
"2.9e-07 M"

**Q:** Reported IC50, HRG1-β1 induced pAkt, MCF-7, binder 18F05 (VHH, also called 18F5) VHH: EVQLVESGGGLVQPGGSLRLSCVASGFTFSSYWMYWVRQAPGKGVEWVSAISPGGVERYTDSVKGRFTISRDNAKNTLYLQMNSLKSEDTAMYYCARLTSFATPESQGTQVTVSS : ____
**A:** 8.04e-09 M
